Across several publications, the following pKi results were reported for Beta-secretase 1 (Homo sapiens, UniProt P56817).
pKi: −log10 of the molar value.

structure-as-smiles | assay-target | pKi
CC1(C)C(=N)N[C@@]2(COCc3ccc(NC(=O)c4ccc(OC(F)(F)F)cn4)cc32)CS1(=O)=O | Beta-secretase 1 (Homo sapiens, UniProt P56817) | 7.30
COc1cnc(C(=O)Nc2ccc(F)c([C@@]34COC[C@@H]3S(=O)(=O)N(C)C(=N)N4)c2)cn1 | Beta-secretase 1 (Homo sapiens, UniProt P56817) | 5.88
COc1cnc2c(Nc3ccc(F)c([C@]45CCC[C@H]4S(=O)(=O)N(C)C(=N)N5)c3)ccnc2c1 | Beta-secretase 1 (Homo sapiens, UniProt P56817) | 6.69
